Entries with their measured pIC50, system Human immunodeficiency virus type 1 reverse transcriptase (Human immunodeficiency virus 1):
Give bare numbers, as −log10 of the molar value.

For orientation, consider the following solved cases.
1. Cc1cn([C@H]2C[C@H](N=[N+]=[N-])[C@@H](CO)O2)c(=O)[nH]c1=O [ZIDOVUDINE]	5.66
2. Cc1cccc(C)c1Sc1c(C2CC2)c(=O)[nH]c(=O)n1COCc1ccccc1	5.21
3. O=c1[nH]c(=O)n(COCc2ccccc2)c(Sc2ccccc2F)c1C1CC1	7.22
4. O=c1[nH]c(=O)n(COCc2ccccc2)c(Sc2ccccc2Br)c1C1CC1	6.80
5. O=c1[nH]c(=O)n(COCc2ccccc2)c(Sc2cccc(F)c2)c1C1CC1	7.40

Consider the following items and state reported pIC50 for each.
1. O=c1[nH]c(=O)n(COCc2ccccc2)c(Sc2cccc(Br)c2)c1C1CC1
2. Cc1ccc(Sc2c(C3CC3)c(=O)[nH]c(=O)n2COCc2ccccc2)c(C)c1
3. O=c1[nH]c(=O)n(COCc2ccccc2)c(Sc2ccc(Cl)cc2)c1C1CC1
4. O=c1[nH]c(=O)n(COCc2ccccc2)c(Sc2cccc(F)c2F)c1C1CC1

Reply:
1. 7.15
2. 5.27
3. 5.24
4. 6.62

Ask: Specify pIC50 for "O=c1[nH]c(=O)n(COCc2ccccc2)c(Sc2ccc(Cl)cc2Cl)c1C1CC1" , system Human immunodeficiency virus type 1 reverse transcriptase (Human immunodeficiency virus 1).
Reply: 5.25

* * *

experimental.target: Cytochrome P450 3A4 (Homo sapiens, UniProt P08684)
Sequence (P08684 whole entry): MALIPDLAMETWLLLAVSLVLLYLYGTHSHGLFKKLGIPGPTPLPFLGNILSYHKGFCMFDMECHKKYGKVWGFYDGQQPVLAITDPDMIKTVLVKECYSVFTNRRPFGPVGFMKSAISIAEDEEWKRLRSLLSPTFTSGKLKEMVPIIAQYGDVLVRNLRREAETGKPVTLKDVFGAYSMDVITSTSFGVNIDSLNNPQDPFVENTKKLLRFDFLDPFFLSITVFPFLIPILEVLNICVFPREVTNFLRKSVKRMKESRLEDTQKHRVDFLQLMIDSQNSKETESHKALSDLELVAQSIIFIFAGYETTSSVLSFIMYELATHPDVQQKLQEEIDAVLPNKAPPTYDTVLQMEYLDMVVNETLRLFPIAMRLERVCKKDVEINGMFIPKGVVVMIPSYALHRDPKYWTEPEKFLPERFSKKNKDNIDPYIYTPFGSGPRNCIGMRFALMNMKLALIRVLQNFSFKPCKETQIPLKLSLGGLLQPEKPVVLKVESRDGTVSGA
method.notes: Inhibition of CYP3A4T (unknown origin)
Type: ADME
pIC50: −log10 of the molar value.
property.measured: pIC50

Ask: Report pIC50, nothing else, for this compound: "O=c1[nH]c(=O)n(COCc2ccccc2)c(Sc2cc(F)ccc2F)c1C1CC1"
Reply: < 4.30

* * *

Entries with their measured IC50, system Human immunodeficiency virus type 1 reverse transcriptase (Human immunodeficiency virus 1):

1. COc1cccc(Sc2c(C3CC3)c(=O)[nH]c(=O)n2COCc2ccccc2)c1	180 nM
2. Cc1ccccc1Sc1c(C2CC2)c(=O)[nH]c(=O)n1COCc1ccccc1	300 nM
3. Cc1ccc(Sc2c(C3CC3)c(=O)[nH]c(=O)n2COCc2ccccc2)cc1	3800 nM

Consider the following items and state reported IC50 for each.
1. COc1ccccc1Sc1c(C2CC2)c(=O)[nH]c(=O)n1COCc1ccccc1
2. O=c1[nH]c(=O)n(COCc2ccccc2)c(Sc2ccncc2)c1C1CC1
3. O=c1[nH]c(=O)n(COCc2ccccc2)c(Sc2cccc(Cl)c2)c1C1CC1
4. Cc1ccc(C)c(Sc2c(C3CC3)c(=O)[nH]c(=O)n2COCc2ccccc2)c1

Reply:
560 nM
630 nM
60 nM
80 nM

Consider the following items and state reported IC50 for each.
1. O=c1[nH]c(=O)n(COCc2ccccc2)c(Sc2ccc(F)cc2F)c1C1CC1
2. Cc1cc(C)cc(Sc2c(C3CC3)c(=O)[nH]c(=O)n2COCc2ccccc2)c1
3. O=c1[nH]c(=O)n(COCc2ccccc2)c(Sc2ccccn2)c1C1CC1

Reply:
1800 nM
80 nM
110 nM

Consider the following items and state reported IC50 for each.
1. O=c1[nH]c(=O)n(COCc2ccccc2)c(Sc2cc(F)ccc2F)c1C1CC1
2. O=c1[nH]c(=O)n(COCc2ccccc2)c(Sc2cc(Cl)ccc2Cl)c1C1CC1

Reply:
30 nM
30 nM

Consider the following items and state reported IC50 for each.
1. O=c1[nH]c(=O)n(COCc2ccccc2)c(Sc2cc(F)cc(F)c2)c1C1CC1
2. O=c1[nH]c(=O)n(COCc2ccccc2)c(Sc2ccccc2Cl)c1C1CC1
3. O=c1[nH]c(=O)n(COCc2ccccc2)c(Sc2c(F)cccc2F)c1C1CC1
4. O=c1[nH]c(=O)n(COCc2ccccc2)c(Sc2c(Cl)cccc2Cl)c1C1CC1
5. O=c1[nH]c(=O)n(COCc2ccccc2)c(Sc2ccc(Br)cc2)c1C1CC1
6. O=c1[nH]c(=O)n(COCc2ccccc2)c(Sc2cc(Cl)cc(Cl)c2)c1C1CC1
7. O=c1[nH]c(=O)n(COCc2ccccc2)c(Sc2cccc(Cl)c2Cl)c1C1CC1

Reply:
1: 100 nM; 2: 90 nM; 3: 720 nM; 4: 4230 nM; 5: 3920 nM; 6: 110 nM; 7: 1220 nM

* * *

Tested on: Human immunodeficiency virus 1
method.notes: Antiviral activity against HIV1 harboring L100I mutant infected in human MT4 cells assessed as protection against virus-induced cytopathicity
Format: functional, organism-based
protocol.conditions: Human immunodeficiency virus 1, MT4
pEC50: −log10 of the molar value.
// no strictly below 6 in pEC50; yes otherwise

Recorded results for 3 molecules are shown here.
1) O=c1[nH]c(=O)n(COCc2ccccc2)c(Sc2ccccc2F)c1C1CC1	yes
2) Cc1cccc(C)c1Sc1c(C2CC2)c(=O)[nH]c(=O)n1COCc1ccccc1	no
3) O=c1[nH]c(=O)n(COCc2ccccc2)c(Sc2cccc(Cl)c2Cl)c1C1CC1	no

Ask: Does the reported pEC50 for "O=c1[nH]c(=O)n(COCc2ccccc2)c(Sc2c(F)cccc2F)c1C1CC1" fall at or above the 6 mark?
Reply: no

Ask: Does the reported pEC50 for "Cc1cccc(Sc2c(C3CC3)c(=O)[nH]c(=O)n2COCc2ccccc2)c1" fall at or above the 6 mark?
Reply: yes

Ask: Does the reported pEC50 for "O=c1[nH]c(=O)n(COCc2ccccc2)c(Sc2ccc(Cl)cc2)c1C1CC1" fall at or above the 6 mark?
Reply: no

Ask: Does the reported pEC50 for "Cc1ccc(C)c(Sc2c(C3CC3)c(=O)[nH]c(=O)n2COCc2ccccc2)c1" fall at or above the 6 mark?
Reply: yes

Ask: Does the reported pEC50 for "O=c1[nH]c(=O)n(COCc2ccccc2)c(Sc2ccc(F)cc2)c1C1CC1" fall at or above the 6 mark?
Reply: no

Ask: Does the reported pEC50 for "COc1cccc(Sc2c(C3CC3)c(=O)[nH]c(=O)n2COCc2ccccc2)c1" fall at or above the 6 mark?
Reply: yes

Ask: Does the reported pEC50 for "COc1ccccc1Sc1c(C2CC2)c(=O)[nH]c(=O)n1COCc1ccccc1" fall at or above the 6 mark?
Reply: yes

Ask: Does the reported pEC50 for "Cc1cn([C@H]2C[C@H](N=[N+]=[N-])[C@@H](CO)O2)c(=O)[nH]c1=O" fall at or above the 6 mark?
Reply: yes

Ask: Does the reported pEC50 for "Cc1cc(C)cc(Sc2c(C3CC3)c(=O)[nH]c(=O)n2COCc2ccccc2)c1" fall at or above the 6 mark?
Reply: yes

Ask: Does the reported pEC50 for "O=c1[nH]c(=O)n(COCc2ccccc2)c(Sc2cccc3ccccc23)c1C1CC1" fall at or above the 6 mark?
Reply: no

Ask: Does the reported pEC50 for "O=c1[nH]c(=O)n(COCc2ccccc2)c(Sc2cc(F)ccc2F)c1C1CC1" fall at or above the 6 mark?
Reply: yes

Ask: Does the reported pEC50 for "COc1cccc(OC)c1Sc1c(C2CC2)c(=O)[nH]c(=O)n1COCc1ccccc1" fall at or above the 6 mark?
Reply: no

Ask: Does the reported pEC50 for "Cc1ccc(Sc2c(C3CC3)c(=O)[nH]c(=O)n2COCc2ccccc2)c(C)c1" fall at or above the 6 mark?
Reply: no

Ask: Does the reported pEC50 for "Cc1ccc(Sc2c(C3CC3)c(=O)[nH]c(=O)n2COCc2ccccc2)cc1" fall at or above the 6 mark?
Reply: no

Ask: Does the reported pEC50 for "O=c1[nH]c(=O)n(COCc2ccccc2)c(Sc2ccc(Br)cc2)c1C1CC1" fall at or above the 6 mark?
Reply: no

Ask: Does the reported pEC50 for "O=c1[nH]c(=O)n(COCc2ccccc2)c(Sc2cccc(F)c2)c1C1CC1" fall at or above the 6 mark?
Reply: yes

Ask: Does the reported pEC50 for "O=c1[nH]c(=O)n(COCc2ccccc2)c(Sc2ccc(F)cc2F)c1C1CC1" fall at or above the 6 mark?
Reply: no

Ask: Does the reported pEC50 for "COc1cc(OC)cc(Sc2c(C3CC3)c(=O)[nH]c(=O)n2COCc2ccccc2)c1" fall at or above the 6 mark?
Reply: no

Ask: Does the reported pEC50 for "O=c1[nH]c(=O)n(COCc2ccccc2)c(Sc2cccc(Cl)c2)c1C1CC1" fall at or above the 6 mark?
Reply: yes

* * *

method.notes: Tmax in Sprague-Dawley rat at 10 mg/kg,po
Type: ADME, organism-based
protocol.conditions: in vivo
property.measured: Tmax (min)
Numbers only, in min.

Ask: Report Tmax, nothing else, for this compound: "O=c1[nH]c(=O)n(COCc2ccccc2)c(Sc2cc(F)ccc2F)c1C1CC1"
Reply: 35

* * *

method.notes: Cmax in Sprague-Dawley rat at 1 mg/kg,iv
Format: ADME, organism-based
Set-up: dose 1 mg/kg, route iv
protocol.conditions: in vivo
property.measured: Cmax (ng/mL)
Give bare numbers, in ng/mL.

Ask: Report Cmax, nothing else, for this compound: "O=c1[nH]c(=O)n(COCc2ccccc2)c(Sc2cc(F)ccc2F)c1C1CC1"
Reply: 2030
